So I've got a bunch of compounds here, and I need their pKi values.
Target: Adenosine receptor A2b (Homo sapiens)
Sequence (P29275 whole entry): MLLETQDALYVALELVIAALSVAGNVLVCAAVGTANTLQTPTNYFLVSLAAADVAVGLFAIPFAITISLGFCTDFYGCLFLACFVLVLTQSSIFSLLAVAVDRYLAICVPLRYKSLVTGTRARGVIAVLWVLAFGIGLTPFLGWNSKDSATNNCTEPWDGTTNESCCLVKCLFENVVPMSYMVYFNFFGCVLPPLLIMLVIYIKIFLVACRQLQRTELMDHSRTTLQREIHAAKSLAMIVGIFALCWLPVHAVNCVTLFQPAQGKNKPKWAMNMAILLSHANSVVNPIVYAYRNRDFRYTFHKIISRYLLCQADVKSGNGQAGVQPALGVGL
Experiment: Displacement of [3H]DPCPX from human Adenosine A2B receptor expressed in HEK293 cells after 30 mins
Assay type: cell-based
Numbers only, as −log10 of the molar value.

Example entries and their recorded answers appear below.
In [3]: df
Out[3]:
                                   compound                            test_target  measure  meas_value
0  CC1=C(C(=O)OC(C)C)C(c2cccs2)n2c(nc3ccccc32)N1 (racemic)  Adenosine receptor A2b (Homo sapiens)      pKi        6.43
1  CCOC(=O)C1=C(C)Nc2ncnn2C1c1ccoc1 (racemic)  Adenosine receptor A2b (Homo sapiens)      pKi        6.22
2  CC1=C(C(=O)OC(C)C)C(c2cccs2)n2ccnc2N1 (racemic)  Adenosine receptor A2b (Homo sapiens)      pKi        6.14
3  CCOC(=O)C1=C(C)NC(=O)CC1c1ccco1 (racemic)  Adenosine receptor A2b (Homo sapiens)      pKi        5.60

For each entry beneath this line, provide reported pKi.
1. CC1=C(C(=O)OC(C)C)C(c2ccoc2)n2ncnc2N1 (racemic)
2. CCOC(=O)C1=C(C)Nc2ncnn2C1c1ccsc1 (racemic)
3. CC1=C(C(=O)OC(C)C)C(c2ccsc2)n2ccnc2N1 (racemic)
4. CCOC(=O)C1=C(C)Nc2nc3ccccc3n2C1c1ccsc1 (racemic)

Result:
[6.46, 6.16, 6.07, 7.53]
